TESTED_TARGET: Voltage-dependent L-type calcium channel subunit alpha-1C (CA+/DILSI/RA) (Rattus norvegicus, UniProt P22002)
Sequence (P22002 whole entry): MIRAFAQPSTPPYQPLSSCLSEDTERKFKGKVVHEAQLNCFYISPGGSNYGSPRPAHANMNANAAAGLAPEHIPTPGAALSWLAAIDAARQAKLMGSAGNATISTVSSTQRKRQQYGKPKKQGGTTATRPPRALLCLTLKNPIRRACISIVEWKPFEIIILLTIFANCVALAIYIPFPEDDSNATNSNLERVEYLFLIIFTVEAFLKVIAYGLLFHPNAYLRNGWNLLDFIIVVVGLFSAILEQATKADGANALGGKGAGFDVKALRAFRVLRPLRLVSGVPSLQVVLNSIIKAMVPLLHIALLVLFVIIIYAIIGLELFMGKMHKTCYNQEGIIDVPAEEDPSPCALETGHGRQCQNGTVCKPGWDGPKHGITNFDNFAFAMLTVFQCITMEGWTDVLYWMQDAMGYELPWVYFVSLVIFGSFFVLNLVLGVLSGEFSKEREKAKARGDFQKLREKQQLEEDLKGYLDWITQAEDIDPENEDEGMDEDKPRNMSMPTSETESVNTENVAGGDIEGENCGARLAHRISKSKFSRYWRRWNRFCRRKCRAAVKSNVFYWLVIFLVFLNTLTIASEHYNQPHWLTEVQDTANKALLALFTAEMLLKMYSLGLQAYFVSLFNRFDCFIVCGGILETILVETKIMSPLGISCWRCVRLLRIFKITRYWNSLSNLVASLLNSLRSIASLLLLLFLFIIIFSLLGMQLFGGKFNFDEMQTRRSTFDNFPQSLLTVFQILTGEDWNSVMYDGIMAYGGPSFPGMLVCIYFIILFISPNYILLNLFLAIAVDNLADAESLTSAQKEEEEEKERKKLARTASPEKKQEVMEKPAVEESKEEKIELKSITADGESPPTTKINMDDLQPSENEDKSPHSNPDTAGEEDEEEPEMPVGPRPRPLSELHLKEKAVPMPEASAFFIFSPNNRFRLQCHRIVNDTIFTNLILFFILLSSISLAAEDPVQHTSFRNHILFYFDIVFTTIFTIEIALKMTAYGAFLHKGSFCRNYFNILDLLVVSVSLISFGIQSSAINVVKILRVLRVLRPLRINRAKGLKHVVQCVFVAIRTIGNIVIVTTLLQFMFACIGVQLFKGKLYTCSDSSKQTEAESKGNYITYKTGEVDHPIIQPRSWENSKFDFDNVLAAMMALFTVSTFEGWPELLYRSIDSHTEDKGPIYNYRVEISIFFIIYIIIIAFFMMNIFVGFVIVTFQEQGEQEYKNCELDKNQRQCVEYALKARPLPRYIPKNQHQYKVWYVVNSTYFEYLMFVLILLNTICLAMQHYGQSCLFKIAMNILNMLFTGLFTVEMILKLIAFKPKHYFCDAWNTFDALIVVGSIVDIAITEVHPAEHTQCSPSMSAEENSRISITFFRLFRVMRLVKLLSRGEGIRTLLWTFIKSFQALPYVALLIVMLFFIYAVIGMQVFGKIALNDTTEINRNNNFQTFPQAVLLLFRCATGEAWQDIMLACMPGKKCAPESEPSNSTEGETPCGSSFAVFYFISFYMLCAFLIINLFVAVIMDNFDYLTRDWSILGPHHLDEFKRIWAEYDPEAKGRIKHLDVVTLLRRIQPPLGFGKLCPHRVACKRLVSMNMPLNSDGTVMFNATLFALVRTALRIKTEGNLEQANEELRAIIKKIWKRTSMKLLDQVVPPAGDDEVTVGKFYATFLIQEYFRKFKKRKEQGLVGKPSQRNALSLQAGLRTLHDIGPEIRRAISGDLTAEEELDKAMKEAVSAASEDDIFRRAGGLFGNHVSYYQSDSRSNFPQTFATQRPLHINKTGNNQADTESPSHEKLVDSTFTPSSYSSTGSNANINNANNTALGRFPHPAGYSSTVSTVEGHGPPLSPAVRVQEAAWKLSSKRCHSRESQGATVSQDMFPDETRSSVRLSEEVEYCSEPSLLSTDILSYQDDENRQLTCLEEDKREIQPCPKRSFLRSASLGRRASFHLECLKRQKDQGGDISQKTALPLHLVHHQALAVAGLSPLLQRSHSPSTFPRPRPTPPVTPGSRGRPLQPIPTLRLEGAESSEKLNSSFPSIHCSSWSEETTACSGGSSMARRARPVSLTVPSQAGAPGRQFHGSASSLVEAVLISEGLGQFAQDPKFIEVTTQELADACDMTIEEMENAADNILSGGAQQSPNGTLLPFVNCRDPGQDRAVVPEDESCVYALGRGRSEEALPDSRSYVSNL
TEST_DETAILS: CA+/DILSI/RA Eurofins SafetyScreen44 (BI)
STATED_CONDITIONS: compound concentration 100 uM, read-out: % Ctrl
RECORDED_ENDPOINT: activity at 100 µM (%)
All answers are understood in %, so give the number only.

The recorded activity at 100 µM for entry `CCC(F)(F)c1cc(N2CCC(S(C)(=O)=O)CC2)nc2sc(C(N)=O)c(N)c12` equals 45

---

TESTED_TARGET: Voltage-dependent L-type calcium channel subunit alpha-1C (CA+/DILSI/RA) (Rattus norvegicus)
TEST_DETAILS: CA+/DILSI/RA Eurofins SafetyScreen44 (BI)
STATED_CONDITIONS: compound concentration 10 uM, read-out: % Ctrl
RECORDED_ENDPOINT: activity at 10 µM

Per the record, CCC(F)(F)c1cc(N2CCC(S(C)(=O)=O)CC2)nc2sc(C(N)=O)c(N)c12 [BI-605906] has activity at 10 µM of 101% (not active)

---

TESTED_TARGET: Amine oxidase [flavin-containing] A (MAOA) (Homo sapiens, UniProt P21397)
Sequence (P21397 whole entry): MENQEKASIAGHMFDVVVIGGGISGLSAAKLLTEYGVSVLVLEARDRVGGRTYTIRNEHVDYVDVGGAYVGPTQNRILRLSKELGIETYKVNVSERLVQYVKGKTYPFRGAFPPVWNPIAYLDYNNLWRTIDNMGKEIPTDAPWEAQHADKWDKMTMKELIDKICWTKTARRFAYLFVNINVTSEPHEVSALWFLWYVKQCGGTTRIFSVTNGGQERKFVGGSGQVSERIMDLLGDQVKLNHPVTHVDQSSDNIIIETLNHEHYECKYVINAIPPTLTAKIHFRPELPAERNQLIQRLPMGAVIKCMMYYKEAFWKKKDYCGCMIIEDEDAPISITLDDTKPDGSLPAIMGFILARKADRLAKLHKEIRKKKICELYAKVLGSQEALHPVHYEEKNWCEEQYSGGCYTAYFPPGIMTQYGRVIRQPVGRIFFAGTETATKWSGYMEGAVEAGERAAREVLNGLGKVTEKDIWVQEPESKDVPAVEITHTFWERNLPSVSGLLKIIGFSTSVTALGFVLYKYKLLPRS
TEST_DETAILS: MAOA Eurofins SafetyScreen44 (BI)
Parameters: mode of action inhibitor
STATED_CONDITIONS: compound concentration 10 uM, read-out: % Ctrl
RECORDED_ENDPOINT: activity at 10 µM

Lab book: activity at 10 µM of `CCC(F)(F)c1cc(N2CCC(S(C)(=O)=O)CC2)nc2sc(C(N)=O)c(N)c12` noted as 68% (not active)

---

TESTED_TARGET: Voltage-dependent L-type calcium channel subunit alpha-1C (CA+/DILSI/RA) (Rattus norvegicus, UniProt P22002)
TEST_DETAILS: CA+/DILSI/RA Eurofins SafetyScreen44 (BI)
STATED_CONDITIONS: compound concentration 30 uM, read-out: % Ctrl
RECORDED_ENDPOINT: activity at 30 µM

In plain terms, `CCC(F)(F)c1cc(N2CCC(S(C)(=O)=O)CC2)nc2sc(C(N)=O)c(N)c12` has a documented activity at 30 µM of 87% (not active)
